Listing of IC50 toward Fibroblast growth factor receptor 4 (Homo sapiens, UniProt P22455), each taken from a published source.
Answers are plain numbers, in nM.

As a guide, the following entries are already answered.
C=CC(=O)N1CCC(O)(c2cc(-c3cc4cc(C)cc(OC)c4s3)c3c(N)ncnn23)C1 (stereo not drawn) = 6.6
COCCNc1cc(NC(=O)N2c3nc(C=O)c(CN4CCN(C)CC4=O)cc3C3(O)CC2C3)ncc1C#N = 1.8
[2H]C([2H])([2H])Nc1nc(-c2c(Cl)c(OC([2H])([2H])[2H])cc(OC([2H])([2H])[2H])c2Cl)cc2cnc(N[C@@H]3COC[C@@H]3NC(=O)C=C)nc12 = 8.3

Consider the additional molecule presented here.
Query: Consider the molecule C=CC(=O)N[C@H]1COC[C@H]1Nc1ncc2cc(-c3c(F)c(OC)cc(OC)c3F)nc(N3CCC(C)(O)C3)c2n1 (stereo partly drawn) and give its measured IC50.
Result: 2.9

###

Listing of IC50 toward Fibroblast growth factor receptor 4 (Homo sapiens, UniProt P22455), each taken from a published source.

As a guide, the following entries are already answered.
C=CC(=O)N1CC=C(c2cc3c(Sc4ccc(NC(=O)NC5CC5)c(Cl)c4)ccnc3cc2OC)CC1 = < 5 nM
C=CC(=O)N1CC=C(c2cc3c(Oc4ccc(NC(=O)NC(C)(C)C)c(Cl)c4)ccnc3cc2OC)CC1 = < 5 nM
C=CC(=O)N[C@H]1CCNC[C@H]1Nc1ncc2cc(-c3c(Cl)c(OC)cc(OC)c3Cl)ccc2n1 = 100 to 1000 nM
C=CC(=O)Nc1cn[nH]c1-c1n[nH]c2c1CCCC(c1cc(OC)cc(OC)c1F)C2 (single isomer, unassigned) = < 10 nM
COCCNc1cc(NC(=O)N(C[C@H]2CCOC2)c2cccc(C=O)n2)ncc1C#N (single isomer, unassigned) = 5.1 nM
C=CC(=O)N[C@@H]1CCCC[C@H]1Nc1ncc2cc(-c3c(Cl)c(OC)cc(OC)c3Cl)ccc2n1 = > 1000 nM
C#CC(=O)N[C@H]1CCC[C@H]1Nc1ncc2cc(-c3cc(OC)cc(C(=O)NCC)c3)ccc2n1 = > 1000 nM
C=CC(=O)Nc1cc(N2CCC(N3CCN(C)CC3)CC2)ccc1Nc1ncc(C#N)c(Nc2ccc(C(=O)O)cc2OC(C)C)n1 = ≤ 10 nM
C=CC(=O)Nc1cc(N2CCC(N3CCN(C)CC3)CC2)ccc1Nc1ncc(C#N)c(Nc2ccc(F)cc2OC(C)C)n1 = ≤ 10 nM
C=CC(=O)Nc1cc(N2CCC(N3CCCCC3)CC2)ccc1Nc1ncc(C#N)c(Nc2ccccc2OC(C)C)n1 = 10 to 50 nM

// each compound listed below needs its IC50
1. C=CC(=O)Nc1cc(N2CCN(CC)CC2)ccc1Nc1cc(Nc2ccccc2OC(C)C)c(C#N)cn1
2. C=CC(=O)Nc1cn(C)nc1-c1n[nH]c2c1CCCC(c1cc(OC)cc(OC)c1F)C2 (single isomer, unassigned)
3. COc1cc(C)cc2cc(-c3cc([C@H]4CCN(C(=O)/C=C/CN5CCOCC5)C4)n4ncnc(N)c34)sc12
4. C=CC(=O)N[C@H]1COC[C@H]1Nc1ncc2cc(-c3c(Cl)c(OC)cc(OC)c3Cl)nc(N3CC(C)(O)C3)c2n1

Result:
10 to 50 nM
10 to 100 nM
80 nM
4.9 nM
